meta.source: the supplement of paper PMC8975748

# Test system: Saccharomyces cerevisiae BY4741 SeMeCo community
# Experimental Details: z-score of subpopulation abundance vs DMSO median, subpopulation auxotrophic for HU; higher = larger share of this subpopulation than in DMSO controls
# Test Settings: 10 µM; 24 h; SM minimal medium; subpopulation (auxotrophy): HU
Counter-ions that a name gives are not always drawn.
Parameter: z-score of subpopulation abundance

Worked cases, answers included:
Compound	z-score of subpopulation abundance
Clc1ccc(COC(Cn2ccnc2)c2ccc(Cl)cc2Cl)cc1 (stereo not given) [Econazole nitrate]	12.4
CC1(C)[C@H](C(=O)O)N2C(=O)C[C@H]2S1(=O)=O [Sulbactam sodium]	1.1
CC[C@@]1(O)C(=O)OCc2c1cc1n(c2=O)Cc2cc3c(CN(C)C)c(O)ccc3nc2-1 [Topotecan HCl]	-2.17
Nc1nc2ccc(OC(F)(F)F)cc2s1 [Riluzole]	-1.39

Short answer on Saccharomyces cerevisiae BY4741 SeMeCo community for O=C(Nc1cc(Cl)cc(Cl)c1O)c1c(O)c(Cl)cc(Cl)c1Cl [Oxyclozanide] , z-score of subpopulation abundance: -1.36
